Target: T1, recombinant His6-tagged extracellular domain of human Clec4C (C-type lectin domain family 4, member C) (human, UniProt Q8WTT0 44-213)
T1 construct: Same antigen for immunisation, panning and ELISA; also called His-Clec4C(EC); pMET7-SIgK-His-Clec4C(EC)
T1 sequence: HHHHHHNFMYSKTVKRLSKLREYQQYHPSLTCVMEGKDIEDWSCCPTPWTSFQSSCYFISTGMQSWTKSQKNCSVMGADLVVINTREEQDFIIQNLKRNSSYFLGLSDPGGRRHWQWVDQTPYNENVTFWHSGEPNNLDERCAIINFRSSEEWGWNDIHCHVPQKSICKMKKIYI
Test: ELISA, antigen-coated vs uncoated blocked wells
metric: ELISA ratio coated/uncoated
Reply briefly: the number, and no unit.

Consider the worked cases shown below.
binder	ELISA ratio coated/uncoated
2CL55 (VHH, pMECS VHH-HA-His6; TG1 periplasmic extract) VHH: QVQLQESGGGWVQPGDSLRLSCAASGSTFSDYAVGWFRQAPGKEREFVARITRLGNGPYYSASVKGRFTISRDNARDMAYLKMDALTPEDTATYYCAAGRTLASTHDTKTSPQTYDYWGQGTQVTVSS	15
2CL41 (VHH, pMECS VHH-HA-His6; TG1 periplasmic extract) VHH: QVQLQESGGGLVQAGGSLRLSCAASGSTFRHHAMAWFRQTPGKEREFVSAINDHGDRTKYLDSVRGRFTISRDNTDNMVYLQMSDLRTEDTAVYTCAAGPLVDYLETTPLVYTYWGQGTQVTVSS	20.9
1CL32 (VHH, pMECS VHH-HA-His6; TG1 periplasmic extract) VHH: QVQLQESGGGLVQAGDSLRLSCAASGDTFSMYTMGWFRQAPGKEREFVAAISRSGGSTNYRDSVKGRFTISRDNDLNAGYLQMNSLKPEDTAVYYCALRLTFSTTTAYTGELQYPYWGQGTQVTVSS	9.9
2CL78 (VHH, pMECS VHH-HA-His6; TG1 periplasmic extract) VHH: QVQLQESGGGVVQPGGSLKLSCAASGSTFRHHAMAWFRQTPGKEREFVSAINDHGDRTKYLDSVRGRFTISRDDTDNMVYLQMSDLRTEDTAVYTCAAGPLVDYLETTPLVYTYWGQGTQVTVSS	32.7

Query: ELISA ratio coated/uncoated; subject: 2CL88 (VHH, pMECS VHH-HA-His6; TG1 periplasmic extract) VHH: QVQLQESGGGLVQPGGSLKLSCTGSGSTFRHHAMAWFRQTPGKEREFVAAINDHGDRTKYLDSVRGRFTISRDNTDNMVYLQMSDLRPEDTANYSCAAGPLVDYLETTPLVYTYWGQGTQVTVSS
12.2

Name the recorded ELISA ratio coated/uncoated for 2CL82 (VHH, pMECS VHH-HA-His6; TG1 periplasmic extract) VHH: QVQLQESGGGLVQPGGSLRLSCEVSTDTFSSLAMAWFRQATGKEREFVAAISWSGASTVYGDSVKGRFTMTRDHPKKMVYLQMDNLKPEDTAVYYCAGDLDGRTWHGDDLEYDYWGQGTQVTVSS .
9.74

Report ELISA ratio coated/uncoated for 2CL29 (VHH, pMECS VHH-HA-His6; TG1 periplasmic extract) VHH: QVQLQESGGGLVQPGDSLRLSCTASERTFTNYAMAWFRQAPGKERDVLATISRSGSSTFYAESVKGRFTISRDNTKNTVYLQMNSLEPEDTAVYYCAARPLVPSEDPDNYNYWGQGTQVTVSS please.
6.84

Fill blank: measured ELISA ratio coated/uncoated of the binder 2CL21 (VHH, pMECS VHH-HA-His6; TG1 periplasmic extract) VHH: QVQLQESGGGLVQAGGSLRLSCAASGRTFTGYAMGWFRQVPGLEREFVARISRSGNSTGYADSVKGRFTVSRDNAKSTMYLQMNSLKTEDTAVYYCAATTSWLPGHNANVYDYWGQGTQVTVSS is ____.
4.23

Look at this binder and give its reported ELISA ratio coated/uncoated. 1CL2 (VHH, pMECS VHH-HA-His6; TG1 periplasmic extract) VHH: QVQLQESGGGLVQAGDSLRLSCAASGDTFSMYAMGWFRQAPGKEREFVAAISRSGGSTDYRDSVKGRFTISRDNDLNAGYLQMNSLKPEDTAVYYCALRLTFSTTTAYTGELQYPYWGQGTQVTVSS
4.36

Entry under review: 2CL90 (VHH, pMECS VHH-HA-His6; TG1 periplasmic extract) VHH: QVQLQESGGGLVQAGGSLRLSCAASGSTFRHHAMAWFRQTPGKGREFVSAINDHGDRTKYLDSVRGRFTISRDNTDNMVYLQMSDLRPEDTAVYSCAAGPLVDYLETTPLVYTYWGQGTQVTVSS . Reported ELISA ratio coated/uncoated?
7.54

Consider the binder 1CL56 (VHH, pMECS VHH-HA-His6; TG1 periplasmic extract) VHH: QVQLQESGGGLVQPGGSLTLSCGASGFDFSDYVMYWLRQAPGKGLQWVSSINASGVRTYYVDALKGRFTISRDNAKNTLYLQIDDLKPEDTGLYYCARVGQAPMYFGVDFWGNGTQVTVSS and give its measured ELISA ratio coated/uncoated.
4.82

Could you tell me which ELISA ratio coated/uncoated is on file for 2CL8 (VHH, pMECS VHH-HA-His6; TG1 periplasmic extract) VHH: QVQLQESGGGLVQPGGSLKLSCAGSGSTFRHHALAWFRQTAEKEREFVSAINDHGTKTRYSDSVRGRFTISRDNDGNMVYLQMDNLRPEDTAVYSCAAGPLVDYLETVPVVYTYWGQGTQVTVSS ?
15.7

// returns reported ELISA ratio coated/uncoated for input 1CL48 (VHH, pMECS VHH-HA-His6; TG1 periplasmic extract) VHH: QVQLQESGGGLVQPGGSLRLSCVGSGSTFRHHAMAWFRQTAGKEREFVSAINNHGTKTRYSDSVRGRFTISRDNDENMVYLQMDNLRPEDTAVYSCAAGPLVDYLETVPVVYTYWGQGTQVTVSS
7.83

Which ELISA ratio coated/uncoated reading was recorded for the binder 2CL73 (VHH, pMECS VHH-HA-His6; TG1 periplasmic extract) VHH: QVQLQESGGGLVQAGDSLRLSCAASGNTFSMYAMGWFRQAPGKEREFVAAISRSGGSTNYRDSVKGRFTISRDNDLNAGYLQMNNLKPEDTAVYYCALRLTFSTTDAYTGKLQYPYWGQGTQVTVSS ?
4.93

Value lookup for ELISA ratio coated/uncoated; key = 1CL25 (VHH, pMECS VHH-HA-His6; TG1 periplasmic extract) VHH: QVQLQESGGGLVQPGGSLRLSCAASGSTFRHHAMAWFRQTPGKEREFVSAINDHGDRTKYLDSVRGRFTISRDNTDNMVYLLMSDLRPEDTAVYSCAAGPLVDYLETTPLVYTYWGQGTQVTVSS
5.81
